System: Type-1 angiotensin II receptor (Oryctolagus cuniculus, UniProt P34976)
Protocol text: Antagonist activity at angiotensin 2 type-1 receptor in Oryctolagus cuniculus (rabbit) aorta in presence of bovine serum albumin
Assay readout: IC50 (nM)

1. CCCCc1nn(Cc2c(F)c(F)c(F)c(F)c2F)c(=O)n1Cc1ccc(-c2ccccc2-c2nn[nH]n2)cc1    6

====

System: Type-1 angiotensin II receptor (Oryctolagus cuniculus) (UniProt P34976)
Sequence (whole entry): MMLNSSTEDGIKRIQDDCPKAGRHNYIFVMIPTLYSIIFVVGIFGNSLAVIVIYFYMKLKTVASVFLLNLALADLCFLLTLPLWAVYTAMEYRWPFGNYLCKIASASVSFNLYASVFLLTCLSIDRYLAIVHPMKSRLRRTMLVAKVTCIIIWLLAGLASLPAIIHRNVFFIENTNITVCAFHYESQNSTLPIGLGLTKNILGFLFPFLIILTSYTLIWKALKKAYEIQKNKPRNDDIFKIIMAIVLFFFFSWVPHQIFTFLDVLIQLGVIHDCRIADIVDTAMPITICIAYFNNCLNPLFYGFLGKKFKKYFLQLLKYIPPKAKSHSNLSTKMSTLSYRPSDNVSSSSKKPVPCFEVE
Protocol text: Antagonist activity at angiotensin 2 type-1 receptor in Oryctolagus cuniculus (rabbit) aorta in presence of bovine serum albumin
Set-up: unit not given here
Item-by-item account of logIC50
Assay readout: logIC50

1) CCCCc1nn(-c2ccccc2Cc2ccccc2)c(=O)n1Cc1ccc(-c2ccccc2-c2nn[nH]n2)cc1    1.04
2) CCCCc1nn(-c2cccc(Cl)c2)c(=O)n1Cc1ccc(-c2ccccc2-c2nn[nH]n2)cc1    2.08
3) CCCCc1nn(-c2ccccc2N(C)C)c(=O)n1Cc1ccc(-c2ccccc2-c2nn[nH]n2)cc1    0.505
4) CCCCc1nn(Cc2cccc(C)c2)c(=O)n1Cc1ccc(-c2ccccc2-c2nn[nH]n2)cc1    1.08
5) CCCCc1nn(CC(C)C)c(=O)n1Cc1ccc(-c2ccccc2-c2nn[nH]n2)cc1    0.505
6) CCCCc1nn(-c2ccccc2N)c(=O)n1Cc1ccc(-c2ccccc2-c2nn[nH]n2)cc1    2
7) CCCCc1nn(-c2ccccc2F)c(=O)n1Cc1ccc(-c2ccccc2-c2nn[nH]n2)cc1    0.886
8) CCCCc1nn(-c2ccccn2)c(=O)n1Cc1ccc(-c2ccccc2-c2nn[nH]n2)cc1    1.9
9) CCCCc1nn(-c2ccccc2C)c(=O)n1Cc1ccc(-c2ccccc2-c2nn[nH]n2)cc1    0.613
10) CCCCc1nn(-c2ccc(OC)cc2)c(=O)n1Cc1ccc(-c2ccccc2-c2nn[nH]n2)cc1    0.699
11) CCCCc1nn(Cc2ccc(C(=O)OC)cc2)c(=O)n1Cc1ccc(-c2ccccc2-c2nn[nH]n2)cc1    1.36
12) CCCCc1nn(-c2ccccc2C(=O)O)c(=O)n1Cc1ccc(-c2ccccc2-c2nn[nH]n2)cc1    2.06
13) CCCCc1nn(C)c(=O)n1Cc1ccc(-c2ccccc2-c2nn[nH]n2)cc1    1.84
14) CCCCc1nn(-c2ccccc2OC)c(=O)n1Cc1ccc(-c2ccccc2-c2nn[nH]n2)cc1    0.82
15) CCCCc1nn(Cc2cccc(C(=O)OC)c2)c(=O)n1Cc1ccc(-c2ccccc2-c2nn[nH]n2)cc1    2.04
16) CCCCc1nn(-c2ccc(C)cc2)c(=O)n1Cc1ccc(-c2ccccc2-c2nn[nH]n2)cc1    1.2
17) CCCCc1nn(Cc2ccccc2)c(=O)n1Cc1ccc(-c2ccccc2-c2nn[nH]n2)cc1    0.663
18) CCCCc1nn(-c2c(F)c(F)c(F)c(F)c2F)c(=O)n1Cc1ccc(-c2ccccc2-c2nn[nH]n2)cc1    1.23

Reference source for all entries: ChEMBL document CHEMBL3046459
